Target: Apoptosis regulator Bcl-2 (Homo sapiens, UniProt P10415)
Sequence (P10415 whole entry): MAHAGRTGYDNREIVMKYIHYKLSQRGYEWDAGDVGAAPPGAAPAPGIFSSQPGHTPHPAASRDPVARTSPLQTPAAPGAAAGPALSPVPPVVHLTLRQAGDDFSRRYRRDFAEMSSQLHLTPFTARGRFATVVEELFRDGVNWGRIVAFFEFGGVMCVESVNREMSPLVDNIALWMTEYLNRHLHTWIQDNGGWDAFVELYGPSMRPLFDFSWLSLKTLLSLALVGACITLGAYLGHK
pIC50: −log10 of the molar value.
A collection of compounds and their measured pIC50

compound | pIC50
CC1(C)CCC(CN2CCN(c3ccc(C(=O)NS(=O)(=O)c4ccc(OCC5CCCOC5)c([N+](=O)[O-])c4)c(Oc4cnc5[nH]ccc5c4)c3)CC2)=C(c2ccc(C(F)(F)F)cc2)C1 (stereo not drawn) | 8.52
CC1(C)CCC(CN2CCN(c3ccc(C(=O)NS(=O)(=O)c4ccc(OC5CCOCC5)c([N+](=O)[O-])c4)c(Oc4cnc5[nH]ccc5c4)c3)CC2)=C(c2ccc(C(F)(F)F)cc2)C1 | 8.08
CC(C)C(=O)N1CCC(CNc2ccc(S(=O)(=O)NC(=O)c3ccc(N4CCN(CC5=C(c6ccc(C(F)(F)F)cc6)CC(C)(C)CC5)CC4)cc3Oc3cnc4[nH]ccc4c3)cc2[N+](=O)[O-])CC1 | 8.62

----------
Experiment: Cmax in rat at 5 mg/kg, ig administered as single dose measured upto 24 hrs by LC-MS/MS analysis
Assay type: ADME, organism-based
Parameters: route intragastric, dose 5 mg/kg, time <=24
Details: in vivo, po
Overview of recorded Cmax for various compounds

molecule | Cmax
CC1(C)CCC(CN2CCN(c3ccc(C(=O)NS(=O)(=O)c4ccc(NCC5CCOCC5)c([N+](=O)[O-])c4)c(Oc4cnc5[nH]ccc5c4)c3)CC2)=C(c2ccc(Cl)cc2)C1 | 355 ng/mL
CC1(C)CCC(CN2CCN(c3ccc(C(=O)NS(=O)(=O)c4ccc(OCC5CCOCC5)c([N+](=O)[O-])c4)c(Oc4cnc5[nH]ccc5c4)c3)CC2)=C(c2ccc(C(F)(F)F)cc2)C1 | 438 ng/mL

----------
Cmax for assorted compounds
Assay: Cmax in mouse at 10 mg/kg, ig administered as single dose v measured upto 24 hrs by LC-MS/MS analysis
Assay type: ADME, organism-based
Design: route intragastric, dose 10 mg/kg, time <=24
Conditions: in vivo, po

molecule | value_units | Cmax
CC1(C)CCC(CN2CCN(c3ccc(C(=O)NS(=O)(=O)c4ccc(NCC5CCOCC5)c([N+](=O)[O-])c4)c(Oc4cnc5[nH]ccc5c4)c3)CC2)=C(c2ccc(Cl)cc2)C1 | ng/mL | 1310
CC1(C)CCC(CN2CCN(c3ccc(C(=O)NS(=O)(=O)c4ccc(OCC5CCOCC5)c([N+](=O)[O-])c4)c(Oc4cnc5[nH]ccc5c4)c3)CC2)=C(c2ccc(C(F)(F)F)cc2)C1 | ng/mL | 920

----------
Molecular target: Bcl-2-like protein 1 (Homo sapiens, UniProt Q07817)
Sequence (Q07817 whole entry): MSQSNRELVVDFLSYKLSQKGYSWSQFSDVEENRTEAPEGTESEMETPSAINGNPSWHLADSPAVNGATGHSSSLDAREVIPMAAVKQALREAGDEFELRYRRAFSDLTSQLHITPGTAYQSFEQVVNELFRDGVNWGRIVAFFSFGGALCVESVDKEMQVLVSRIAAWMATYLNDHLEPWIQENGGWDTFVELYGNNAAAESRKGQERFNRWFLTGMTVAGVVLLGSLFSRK
In this section, each of the molecules is paired with its reported IC50.
property_measured: IC50 (nM)

molecule | op | recorded_number
CN1CCC(COc2ccc(S(=O)(=O)NC(=O)c3ccc(N4CCN(CC5=C(c6ccc(C(F)(F)F)cc6)CC(C)(C)CC5)CC4)cc3Oc3cnc4[nH]ccc4c3)cc2[N+](=O)[O-])C1 (stereo not given) | = | 16.8
CC1(C)CCC(CN2CCN(c3ccc(C(=O)NS(=O)(=O)c4ccc(OCC5CCCOC5)c([N+](=O)[O-])c4)c(Oc4cnc5[nH]ccc5c4)c3)CC2)=C(c2ccc(C(F)(F)F)cc2)C1 (stereo not given) | = | 761
CC1(C)CCC(CN2CCN(c3ccc(C(=O)NS(=O)(=O)c4ccc(NC5CCOC5)c([N+](=O)[O-])c4)c(Oc4cnc5[nH]ccc5c4)c3)CC2)=C(c2ccc(C(F)(F)F)cc2)C1 (stereo not given) | = | 837
CN1CCC(CNc2ccc(S(=O)(=O)NC(=O)c3ccc(N4CCN(CC5=C(c6ccc(C(F)(F)F)cc6)CC(C)(C)CC5)CC4)cc3Oc3cnc4[nH]ccc4c3)cc2[N+](=O)[O-])C1 (stereo not given) | = | 35.7
CC1(C)CCC(CN2CCN(c3ccc(C(=O)NS(=O)(=O)c4ccc(NCC5CCOCC5)c([N+](=O)[O-])c4)c(Oc4cnc5[nH]ccc5c4)c3)CC2)=C(c2ccc(Cl)cc2C(F)(F)F)C1 | > | 2000

Reference source for all entries: ChEMBL document CHEMBL4825763
